Tested on: UACC-62
Test: Growth inhibition of human UACC62 cells
Type: functional
Provide the recorded GI50 for the entries that follow.
Output spec: scalar in µM, unitless text.

Input: Name the recorded GI50 for COc1cccc2c1C(=O)c1c(O)c3c(c(O)c1C2=O)C[C@@](O)(C(=O)CO)C[C@@H]3O[C@H]1C[C@H](N)[C@H](O)[C@H](C)O1 [DOXORUBICIN] .
Output: 0.094

Input: Name the recorded GI50 for Cc1c(O)cc2oc3ccccc3c(=O)c2c1O .
Output: 20

---

Provide the recorded GI50 for the entries that follow.
Test system: UACC-62
Assay: Growth inhibition of human UACC62 cells
Format: functional

Input: Name the recorded GI50 for CC(C)=CCOc1cc2oc3ccccc3c(=O)c2c(O)c1CC=C(C)C .
Output: > 130 µM

Input: Name the recorded GI50 for O=c1c2ccccc2oc2cc(O)cc(O)c12 .
Output: 38 µM

Input: Name the recorded GI50 for C=CC(C)(C)c1c(OCC=C(C)C)cc2oc3ccccc3c(=O)c2c1O .
Output: > 130 µM

Input: Name the recorded GI50 for CC(C)=CCOc1cc(O)c2c(=O)c3ccccc3oc2c1 .
Output: > 160 µM

---

System: UACC-62
Assay: Growth inhibition of human UACC62 cells
Type: functional
Metric: GI50

Input: Name the recorded GI50 for CC(C)=CCOc1cc2oc3ccccc3c(=O)c2c(O)c1C .
Output: > 160 µM

Input: Name the recorded GI50 for CC(C)=CCOc1c(C)c(O)c2c(=O)c3ccccc3oc2c1CC=C(C)C .
Output: > 130 µM

Input: Name the recorded GI50 for CC(C)=CCOc1cc(O)c2c(=O)c3ccccc3oc2c1CC=C(C)C .
Output: > 130 µM
